Experimental target: T1, mfPRLR.mmh (soluble monomeric macaca fascicularis PRLR) (macaca fascicularis)
T1 construct: soluble monomeric PRLR protein; also called macaca fascicularis (mf) PRLR.mmh; monkey PRLR
T1 chain: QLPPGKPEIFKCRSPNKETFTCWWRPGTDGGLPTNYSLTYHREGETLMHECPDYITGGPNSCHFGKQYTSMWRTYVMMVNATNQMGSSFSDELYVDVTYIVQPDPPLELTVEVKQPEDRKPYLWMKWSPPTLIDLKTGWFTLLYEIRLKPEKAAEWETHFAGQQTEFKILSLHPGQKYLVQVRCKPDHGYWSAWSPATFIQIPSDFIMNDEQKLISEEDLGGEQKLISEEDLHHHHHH
Method summary: SPR (Biacore), antibody capture, 37 C
Measure: T 1/2 (min)

| Binder | Endpoint value |
| --- | --- |
| H1H6967N (antibody, human IgG1, V domains shown, also called H2M6967N) VH: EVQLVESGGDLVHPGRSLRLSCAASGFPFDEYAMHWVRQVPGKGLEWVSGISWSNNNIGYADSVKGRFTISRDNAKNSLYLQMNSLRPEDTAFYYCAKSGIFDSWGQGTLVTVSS VL: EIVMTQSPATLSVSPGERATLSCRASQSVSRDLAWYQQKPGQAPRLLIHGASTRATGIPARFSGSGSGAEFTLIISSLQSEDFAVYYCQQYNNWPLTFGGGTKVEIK | 7.1 |
| H1H6774P (antibody, human IgG1, V domains shown, human IgG1 Fc (H1H)) VH: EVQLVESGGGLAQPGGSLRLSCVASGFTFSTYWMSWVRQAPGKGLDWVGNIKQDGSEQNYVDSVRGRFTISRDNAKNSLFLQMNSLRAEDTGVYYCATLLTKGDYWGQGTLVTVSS VL: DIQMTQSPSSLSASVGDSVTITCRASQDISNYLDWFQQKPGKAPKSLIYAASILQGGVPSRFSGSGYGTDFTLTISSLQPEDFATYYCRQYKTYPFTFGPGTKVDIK | 3 |
| H1H6765P (antibody, human IgG1, V domains shown, human IgG1 Fc (H1H)) VH: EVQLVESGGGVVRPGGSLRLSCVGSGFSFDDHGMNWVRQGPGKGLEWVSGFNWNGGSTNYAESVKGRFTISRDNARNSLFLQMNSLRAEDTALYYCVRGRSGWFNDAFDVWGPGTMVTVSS VL: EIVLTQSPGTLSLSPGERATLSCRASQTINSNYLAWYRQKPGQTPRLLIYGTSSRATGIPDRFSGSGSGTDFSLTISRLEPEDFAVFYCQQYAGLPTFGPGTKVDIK | 215 |
